All values here come from patent US20160108110A1.

Target: T1, Human ANGPTL4(26-406)-FLAG-His6-Avi (human, UniProt Q9BY76 24-406, biotin on the C-terminal Avi tag in the biotinylated preparations (immobilised form in SET, ELISA and Octet))
T1 construct: also called full-length human ANGPTL4; hANGPTL4
T1 sequence: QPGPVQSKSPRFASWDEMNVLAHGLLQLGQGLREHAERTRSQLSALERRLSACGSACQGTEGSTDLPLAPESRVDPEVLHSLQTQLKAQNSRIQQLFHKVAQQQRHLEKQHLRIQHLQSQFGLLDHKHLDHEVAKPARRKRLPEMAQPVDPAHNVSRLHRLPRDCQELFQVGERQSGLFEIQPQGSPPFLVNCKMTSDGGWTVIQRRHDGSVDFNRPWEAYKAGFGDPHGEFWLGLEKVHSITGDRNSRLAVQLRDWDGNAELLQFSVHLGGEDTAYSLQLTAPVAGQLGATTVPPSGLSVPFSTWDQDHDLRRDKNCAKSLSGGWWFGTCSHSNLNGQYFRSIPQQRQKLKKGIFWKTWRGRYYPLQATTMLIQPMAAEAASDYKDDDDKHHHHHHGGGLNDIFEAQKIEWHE
Assay: ForteBio Octet, biotinylated antigen on streptavidin sensor, antibody in solution
observedProperty: koff (s⁻¹)
Hi! Could you send only the number? It should be in s⁻¹, unit omitted.

| binder | observedProperty | measuredValue |
| --- | --- | --- |
| MOR021798 (antibody, human IgG1, lambda, V domains shown, human IgG1) VH: QVQLLESGGGLVQPGGSLRLSCAASGFTFSDYALHWVRQAPGKGLEWVSRISYMGSSTYYADSVKGRFTISRDNSKNTLYLQMNSLRAEDTAVYYCAREHYYSSPMGGVAVDNWGQGTLVTVSS VL: DIVLTQPPSVSGAPGQRVTISCSGSSSNIGYNTVSWYQQLPGTAPKLLIYSNNIRPSGVPDRFSGSKSGTSASLAITGLQAEDEADYYCSSWDFLIKSLVFGGGTKLTVLG | koff | 9.9e-05 |
| MOR021795 (antibody, human IgG1, lambda, V domains shown, human IgG1) VH: QVQLVQSGAEVKKPGSSVKVSCKASGGTFNSYAISWVRQAPGQGLEWMGGIIPLFGFANYAQKFQGRVTITADESTSTAYMELSSLRSEDTAVYYCARESYDPYAFDVWGQGTLVTVSS VL: DIELTQPPSVSVSPGQTASITCSGDNLGKYSASWYQQKPGQAPVLVIHQDNNRPSGIPERFSGSNSGNTATLTISGTQAEDEADYYCASRAHSMHVVFGGGTKLTVLG | koff | 7.4e-05 |

Now examine the next entry.
Query :: Consider the binder MOR021823 (antibody, human IgG1, kappa, V domains shown, human IgG1) VH: QVQLLESGGGLVQPGGSLRLSCAASGFTFSSYYLHWVRQAPGKGLEWVSYISGDGSSTYYADSVKGRFTISRDNSKNTLYLQMNSLRAEDTAVYYCARERSYAHDHWGQGTLVTVSS VL: DIQMTQSPSSLSASVGDRVTITCRASQDIYIDLNWYQQKPGKAPKLLIYAASKLQSGVPSRFSGSGSGTDFTLTISSLQPEDFATYYCQQGYFLPQTFGQGTKVEIKR and give its measured koff.
Result :: 2.5e-05
